- Tested on: p-phenylquinone-induced writhing in mice
- ASSAY_PROTOCOL: animal or person
- Format: in vivo, mouse (male ddY mice)
- CONDITIONS_USED: Mus musculus, sc, read-out: Analgesic effect, phenylquinone-induced writhing, ED50
Counter-ions that a name gives are not always drawn.
Lab note - cut at 6 µg/kg for ED50: True if strictly below, False if not.

Report whether reported ED50 is lower than 6 µg/kg (strictly) for O=C1C[C@@H](C(=O)N2CCCC[C@H]2CN2CCCC2)c2cc(Cl)c(Cl)cc21 [Example 2-E2]
False

Report whether reported ED50 is lower than 6 µg/kg (strictly) for O=C1CC(C(=O)N2CCCCC2CN2CCCC2)c2cc(Cl)c(Cl)cc21 (stereo not shown) [Example 1]
False

Report whether reported ED50 is lower than 6 µg/kg (strictly) for O=C1CC(C(=O)N2CCSCC2CN2CCCC2)c2cc(Cl)c(Cl)cc21 (stereo not shown) [Example 36, hydrochloride]
True

Report whether reported ED50 is lower than 6 µg/kg (strictly) for O=C1C[C@@H](C(=O)N2CCCC[C@H]2CN2CCCC2)c2cc(Cl)c(Cl)cc21 (relative stereo) [Example 4-D2]
False

Report whether reported ED50 is lower than 6 µg/kg (strictly) for O=C1C[C@H](C(=O)N2CCCC[C@H]2CN2CCCC2)c2cc(Cl)c(Cl)cc21 (relative stereo) [Example 4-D1]
True

Report whether reported ED50 is lower than 6 µg/kg (strictly) for O=C1C[C@H](C(=O)N2CCCC[C@H]2CN2CCCC2)c2cc(Cl)c(Cl)cc21 [Example 2-E1]
True

Report whether reported ED50 is lower than 6 µg/kg (strictly) for O=C([C@H]1CCc2cc(Cl)c(Cl)cc21)N1CCSC[C@@H]1CN1CCCC1 (relative stereo) [Example 41-D1]
True
